B1: ESRRA (parent)
chain: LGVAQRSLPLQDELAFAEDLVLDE

Variants of: B1
Experiment: protein stability index of a GFP-peptide fusion (GPS, HEK-293T) (PSI 1-6); higher = more stable;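 also: lentivirally expressed fusions sorted by FACS into six bins by GFP to DsRed ratio, PSI derived from sequencing read proportions per bin multiplied by bin number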
Settings: c terminus: a fixed tail appended
Categorize each record by its protein stability index using lowest (below 3), middle (3 to below 4), highest (4 or more)

- sequenceChange: "E13L"
  category: "lowest"
- sequenceChange: "A17D"
  category: "highest"
- sequenceChange: "L20D"
  category: "highest"
- sequenceChange: "V21N"
  category: "highest"
- sequenceChange: "Q5Y"
  category: "lowest"

As a next step, examine the variant that follows.
Could you place D12T in its proper category? Many thanks.
lowest

Cited source: the supplement of paper PMC10567573
